- Tested On: B1R receptor of rats (rB1R) (Rattus norvegicus)
- Construct: host or cells: CHO K1 cells
- Sequence (P97583 whole entry): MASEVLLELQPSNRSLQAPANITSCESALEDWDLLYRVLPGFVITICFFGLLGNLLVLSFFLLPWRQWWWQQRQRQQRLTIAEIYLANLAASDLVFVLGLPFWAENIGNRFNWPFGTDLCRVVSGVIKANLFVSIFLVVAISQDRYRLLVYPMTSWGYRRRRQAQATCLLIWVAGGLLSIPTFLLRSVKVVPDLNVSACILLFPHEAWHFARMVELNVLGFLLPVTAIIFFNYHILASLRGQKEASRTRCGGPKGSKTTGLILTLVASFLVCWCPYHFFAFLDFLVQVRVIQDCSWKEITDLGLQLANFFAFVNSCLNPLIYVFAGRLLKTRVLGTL
- Assay Procedure: FLIPR Ca2+ assay on rat bradykinin 1 receptor (CHO K1 rB1R cells)
- Type: cell-based
- Study Conditions: test substance 10 μM; CHO K1 cells with B1R gene of rats; agonist Des-Arg9-bradykinin 100 nM; compared to maximum achievable inhibition
Measured Property: inhibition at 10 µM

>  <Compound>
COc1cc(C)c(S(=O)(=O)N(CCOCC(=O)N2CCn3cccc3C2c2cccc(F)c2)CC(C)C)c(C)c1C (centres unmarked)

>  <Measured Property>
inhibition at 10 µM

>  <Measurement>
99%

$$$$
>  <Compound>
COc1cc(C)c(S(=O)(=O)N(CCOCC(=O)N2CCn3c(CN(C)C)ccc3C2c2cccs2)Cc2ccccc2)c(C)c1 (centres unmarked)

>  <Measured Property>
inhibition at 10 µM

>  <Measurement>
102%

$$$$
>  <Compound>
COc1cc(C)c(S(=O)(=O)N(C)CCOCC(=O)N2CCn3cccc3C2C(C)(C)C)c(C)c1C (centres unmarked)

>  <Measured Property>
inhibition at 10 µM

>  <Measurement>
100%

$$$$
>  <Compound>
COc1cc(C)c(S(=O)(=O)N(CCOCC(=O)N2CCn3c(CN(C)C)ccc3C2Cc2ccccc2)Cc2ccccc2)c(C)c1C (centres unmarked)

>  <Measured Property>
inhibition at 10 µM

>  <Measurement>
96%

$$$$
>  <Compound>
CN1CCN(CCCc2ccc3n2CCN(C(=O)CC(NS(=O)(=O)c2ccc4ccccc4c2)c2ccccc2)C3)CC1 (centres unmarked)

>  <Measured Property>
inhibition at 10 µM

>  <Measurement>
100%

$$$$
>  <Compound>
COc1cc(C)c(S(=O)(=O)N(C)CCOCC(=O)N2CCn3c(CN4CCCC4)ccc3C2c2ccccc2)c(C)c1 (centres unmarked)

>  <Measured Property>
inhibition at 10 µM

>  <Measurement>
101%

$$$$
>  <Compound>
COc1cc(C)c(S(=O)(=O)N(C)CCOCC(=O)N2CCn3cccc3C2c2cccc(C(F)(F)F)c2)c(C)c1 (centres unmarked)

>  <Measured Property>
inhibition at 10 µM

>  <Measurement>
99%

$$$$
>  <Compound>
CCC1c2ccc(CN(C)C)n2CCN1C(=O)COCCN(Cc1ccccc1)S(=O)(=O)c1c(C)cc(OC)cc1C (centres unmarked)

>  <Measured Property>
inhibition at 10 µM

>  <Measurement>
101%

$$$$
>  <Compound>
COc1cc(C)c(S(=O)(=O)N(C)CCOCC(=O)N2CCn3c(ccc3-c3cccnc3)C2)c(C)c1

>  <Measured Property>
inhibition at 10 µM

>  <Measurement>
99%

$$$$
>  <Compound>
COc1cc(C)c(S(=O)(=O)N(C)CCOCC(=O)N2CCn3cccc3C2c2cccnc2)c(C)c1C (centres unmarked)

>  <Measured Property>
inhibition at 10 µM

>  <Measurement>
99%

$$$$
>  <Compound>
COc1cc(C)c(S(=O)(=O)N(C)CCOCC(=O)N2CCn3cccc3C2c2ccc(Cl)nc2)c(C)c1C (centres unmarked)

>  <Measured Property>
inhibition at 10 µM

>  <Measurement>
99%

$$$$
>  <Compound>
COc1cc(C)c(S(=O)(=O)N(CCOCC(=O)N2CCn3cccc3C2c2ccc(C)c(C)c2)Cc2ccccc2)c(C)c1 (centres unmarked)

>  <Measured Property>
inhibition at 10 µM

>  <Measurement>
69%

$$$$
>  <Compound>
COc1cc(C)c(S(=O)(=O)N(C)CCOCC(=O)N2CCn3c(Cc4cccnc4)ccc3C2)c(C)c1

>  <Measured Property>
inhibition at 10 µM

>  <Measurement>
94%

$$$$
>  <Compound>
CCCC1c2cccn2CCN1C(=O)COCCN(Cc1ccccc1)S(=O)(=O)c1c(C)cc(OC)c(C)c1C (centres unmarked)

>  <Measured Property>
inhibition at 10 µM

>  <Measurement>
86%

$$$$
